Target chain: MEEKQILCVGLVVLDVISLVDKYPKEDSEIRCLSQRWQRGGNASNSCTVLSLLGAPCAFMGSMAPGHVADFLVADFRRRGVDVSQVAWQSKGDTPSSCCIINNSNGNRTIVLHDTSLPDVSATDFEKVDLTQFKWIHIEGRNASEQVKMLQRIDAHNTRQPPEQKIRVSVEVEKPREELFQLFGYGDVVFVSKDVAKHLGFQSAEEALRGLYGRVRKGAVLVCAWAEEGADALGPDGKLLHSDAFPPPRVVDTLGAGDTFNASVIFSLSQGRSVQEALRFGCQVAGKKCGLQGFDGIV
pKi: −log10 of the molar value.
Measurement type: pKi

Recorded results for 2 compounds are shown here.
// pKi lookup, key: C[C@H]1CCN1c1nc(N2C[C@@H]3[C@@H](CC(=O)O)[C@@H]3C2)c2c(n1)C(F)(F)CC2 [Example 9]
≥ 7.00

// pKi lookup, key: C[C@H]1CCN1c1nc(N2CC3CC(C2)C3CC(=O)O)c2c(c1C#N)CCCCC2 (some centres unmarked) [Example 3]
≥ 7.00

Further cases:
// pKi lookup, key: C[C@@H]1OCc2c1nc(N1CC[C@@H]1C)nc2N1C[C@H]2C[C@@H](C1)[C@@H]2CC(=O)O [Example 6]
6.00 to 7.00

// pKi lookup, key: O=C(O)C[C@@H]1[C@H]2CN(c3nc(N4CCCC4)nc4c3CCCC4(F)F)C[C@@H]12 [Example 12]
6.00 to 7.00

// pKi lookup, key: C[C@H]1CCN1c1nc(N2C[C@H]3C[C@@H](C2)[C@@H]3CC(=O)O)c2c(n1)C(F)(F)CC2 [Example 8]
≥ 7.00
